target: JMJD2E (Homo sapiens, UniProt B2RXH2)
assay method text: JMJD2E FDH-coupled assay under low and high iron conditions (iron chelation profile)
Format: biochemical
Parameters: The catalytic domain of human JMJD2E (residues 1–337); His6 (N); made in house; host or cells: E. coli
protocol conditions: Figure 2; high iron 25 µM Fe(II); read-out: IC50 values in μM, High Fe
measure: IC50 (µM)

molecule="Oc1ccc(NCc2ccccc2OCc2ccccc2F)cc1 [SID 17385881]" measure=IC50 uom=µM reported_measurement=14.1

* * *

target: UniProt B2RXH2
Sequence (B2RXH2 1-337): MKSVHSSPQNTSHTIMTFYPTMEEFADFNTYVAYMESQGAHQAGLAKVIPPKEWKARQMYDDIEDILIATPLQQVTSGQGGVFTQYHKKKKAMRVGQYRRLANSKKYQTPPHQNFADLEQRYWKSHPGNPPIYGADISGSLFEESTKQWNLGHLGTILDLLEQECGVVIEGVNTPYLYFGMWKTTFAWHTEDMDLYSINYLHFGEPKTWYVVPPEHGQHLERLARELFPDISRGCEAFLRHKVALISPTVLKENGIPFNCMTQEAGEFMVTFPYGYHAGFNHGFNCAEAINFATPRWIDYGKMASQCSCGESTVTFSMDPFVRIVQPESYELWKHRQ
assay method text: JMJD2E FDH-coupled assay under low and high iron conditions (iron chelation profile)
Type: biochemical
Parameters: The catalytic domain of human JMJD2E (residues 1–337); His6 (N); made in house; host or cells: E. coli
protocol conditions: Table S1; high iron, head says 20 µM FAS; unit not in table, from Figure 2; read-out: qHTS Data: jmjd2e fas20um IC50
pIC50: −log10 of the molar value.
Lab note: anything with pIC50 at or over 5 counts as yes; the rest go in no.

compound="CN(C)S(=O)(=O)c1cccc(-n2sc3ccccc3c2=O)c1 [compound 24834029]" label=yes
compound="Nc1ccc2nc3c(=O)n(CCc4ccccc4)c(=O)[nH]c3nc2c1 [compound 26726384]" label=no
compound="NCC(O)c1ccc(O)c(O)c1.O=C(O)C(O)C(O)C(=O)O (stereo not shown) [compound 50105780]" label=yes
compound="C[C@@](N)(Cc1ccc(O)c(O)c1)C(=O)O [compound 11112415]" label=yes
compound="c1cnc2c(c1)ccc1cccnc12 [compound 11533040]" label=yes
compound="CCOc1cc(CNc2ccc(N3CCCCC3)cc2)cc(Br)c1OCC(=O)NC(C)(C)C [compound 22412645]" label=yes
compound="COc1ccccc1NC(=S)NNC(=O)c1nn(C)c(C)c1Br [compound 22404294]" label=yes
compound="O=C(OC1Cc2c(O)cc(O)cc2OC1c1cc(O)c(O)c(O)c1)c1cc(O)c(O)c(O)c1 (stereo not shown) [compound 26749738]" label=yes
compound="Cc1nc(-c2coc3c(O)c(O)ccc3c2=O)cs1 [compound 50110018]" label=no
compound="CCN1/C(=C\\c2ccc3ccccc3[n+]2CC)Sc2cc(C)ccc21.[I-] [compound 24782097]" label=no
compound="O=C1C=CC(=O)c2c(O)cccc21 [compound 26749198]" label=no
compound="C[C@H](N)[C@H](O)c1ccc(O)c(O)c1 [compound 11112447]" label=yes
compound="O=c1c(-c2cc(O)c(O)c(O)c2)coc2cc(O)c(O)c(O)c12 [compound 26749510]" label=no
compound="CN(C)C1C(=O)C(C(N)=O)=C(O)[C@@]2(O)C(=O)C3=C(O)c4c(O)cccc4[C@@](C)(O)C3CC12.Cl (stereo partly shown) [compound 26748266]" label=yes
compound="NC(Cc1cc(O)c(O)cc1O)C(=O)O (stereo not shown) [compound 50106437]" label=yes
compound="Oc1cc2c(cc1O)C1c3ccc(O)c(O)c3OCC1(O)C2 (stereo not shown) [compound 26749470]" label=no
compound="O=C(O)c1cc(O)c(O)c(O)c1 [compound 26747307]" label=no
compound="O=C(OCC1O[C@@H](OC(=O)c2cc(O)c(O)c(O)c2)[C@@H](OC(=O)c2cc(O)c(O)c(O)c2)[C@@H](OC(=O)c2cc(O)c(O)c(O)c2)[C@@H]1OC(=O)c1cc(O)c(O)c(O)c1)c1cc(O)c(O)c(O)c1 (stereo partly shown) [compound 22405492]" label=no
compound="CC(C)c1ccc(N2C(=O)CC(Sc3ncn[nH]3)C2=O)cc1 (stereo not shown) [compound 14726804]" label=no
compound="COc1ccc(N2C(=O)CC(Sc3ncn[nH]3)C2=O)c(OC)c1 (stereo not shown) [compound 7974422]" label=no
compound="O=C1C=CC2=C3c4cc(O)c(O)cc4CC3(O)COC2=C1O (stereo not shown) [compound 26749676]" label=no
compound="CN1CC[C@]2(C)c3cc(O)ccc3N(C)[C@@H]12 [compound 11112885]" label=yes
compound="COc1ccc(-n2c(C)cc(/C=N/Nc3nnc(C)n3N)c2C)cc1.Cl [compound 22416865]" label=yes
compound="Cc1cc2c(C(C)C)c(O)c(O)c(C=O)c2c(O)c1-c1c(C)cc2c(C(C)C)c(O)c(O)c(C=O)c2c1O [compound 11112318]" label=no
compound="Oc1ccc(CNc2ccccc2)c2cccnc12 [compound 842629]" label=no
